Test system: human erythrocytes
Experiment: Haemolytic assay
Assay type: cell-based
Details: red cells of human, 1 h
Ends that are not written are not given here.

| substance | Haemolytic activity HC10 |
| --- | --- |
| GVIKAAKKVVKVLKNLF-NH2 [Upn-lys5] | >256 mg/L |
| GIWKKWIKKVVNVLKNLF-NH2 [KU1] | 8.07 ± 1.60 mg/L |
| GVIKAAKKVVNVLKNLF-NH2 [Upn-lys4] | >256 mg/L |
| GVIKAAKKVVKVLKKLF-NH2 [Upn-lys6] | >256 mg/L |
| GIWKKWIKKWLNVLKNLF-NH2 [KU2] | 7.33 ± 0.73 mg/L |
| GIWKKWIKKWLKKLKNLF-NH2 [KU4] | 49.38 ± 5.14 mg/L |
| GIWKKWIKKWLKVLKNLF-NH2 [KU3] | 5.65 ± 0.85 mg/L |
